# System: Dengue 4 virus MY01-22713
# protocol.description: High-content imaging cell-based flavivirus immunodetection (HCl-CFI) assay, Dengue 4
# recorded.conditions: Dengue virus, A549, 48 h, read-out: Dengue 4 virus MY01-22713 in A549 using HCl [Inhibitor/IC50] Qualified AC50, A549 cells, 48 h, viral E protein expression
pEC50: −log10 of the molar value. Structures can show the parent of a compound that is named as a salt.
Reported pEC50 is given for each of the following molecules.

// known answers, use as guide
In [3]: df
Out[3]:
                                   molecule               assay_system  reported_measurement
0  Cc1cc(C)cc(CN2CCc3c(sc(NC(=O)Cc4ccc(S(N)(=O)=O)cc4)c3C#N)C2)c1 [Example 110]  Dengue 4 virus MY01-22713                > 7.00
1  CC1Cc2sc(NC(=O)Cc3ccc(S(N)(=O)=O)cc3)c(C#N)c2CN1Cc1cc(Cl)ccc1Cl (stereo not shown) [Example 64]  Dengue 4 virus MY01-22713                > 7.00
2  CS(=O)(=O)c1ccc(CC(=O)Nc2sc3c(c2C#N)CCN(Cc2cccc(F)c2)C3)cc1 [Example 119]  Dengue 4 virus MY01-22713                > 7.00
3  N#Cc1c(NC(=O)Cc2ccc(S(N)(=O)=O)cc2)sc2c1CCN(Cc1cc(F)cc(F)c1)C2 [Example 93]  Dengue 4 virus MY01-22713                > 7.00
4  N#Cc1c(NC(=O)Cc2ccc3c(c2)CNC3)sc2c1CN(CC1CCCCC1)CC2 [Example 20]  Dengue 4 virus MY01-22713                < 6.00
5  N#Cc1c(NC(=O)Cc2ccc(S(N)(=O)=O)cc2)sc2c1CCN(CC1CCCCC1)CC2 [Example 125]  Dengue 4 virus MY01-22713          6.00 to 7.00
6  COc1cccc(CC(=O)Nc2sc3c(c2C#N)CN(Cc2cccc(F)c2)CC3)c1OC [Example 34]  Dengue 4 virus MY01-22713          6.00 to 7.00
7  CC1Cc2sc(NC(=O)Cc3ccc(C(N)=O)cc3)c(C#N)c2CN1Cc1cccc(F)c1 (stereo not shown) [Example 58]  Dengue 4 virus MY01-22713                > 7.00

CC1Cc2sc(NC(=O)Cc3ccc(S(N)(=O)=O)cc3)c(C#N)c2CN1CC1CCCC1 (stereo not shown) [Example 59, hydrochloride] yielded pEC50 of 6.00 to 7.00

Cc1ccccc1CN1CCc2c(sc(NC(=O)Cc3ccc(S(N)(=O)=O)cc3)c2C#N)C1 [Example 97] yielded pEC50 of 6.00 to 7.00

CC1Cc2sc(NC(=O)Cc3ccc(S(C)(=O)=O)cc3)c(C#N)c2CN1Cc1cccc(F)c1 (stereo not shown) [Example 69] yielded pEC50 of > 7.00

CS(=O)(=O)Nc1ccc(CC(=O)Nc2sc3c(c2C#N)CN(Cc2cccc(F)c2)CC3)cc1 [Example 46] yielded pEC50 of 6.00 to 7.00

CC(C1CCCCC1)N1CCc2sc(NC(=O)Cc3ccc(S(N)(=O)=O)cc3)c(C#N)c2C1 (stereo not shown) [Example 3] yielded pEC50 of > 7.00

N#Cc1c(NC(=O)Cc2ccc(S(N)(=O)=O)cc2)sc2c1CCN(Cc1cccc(F)c1F)C2 [Example 106] yielded pEC50 of > 7.00

N#Cc1c(NC(=O)Cc2ccc(S(N)(=O)=O)cc2)sc2c1CCN(Cc1cc(F)ccc1F)C2 [Example 113] yielded pEC50 of > 7.00

Cc1ccccc1CN1CCc2c(sc(NC(=O)Cc3ccc(S(C)(=O)=O)cc3)c2C#N)C1 [Example 103] yielded pEC50 of 6.00 to 7.00

====

# Test system: Dengue 1 virus MY97-10245
# protocol.description: High-content imaging cell-based flavivirus immunodetection (HCl-CFI) assay, Dengue 1
# recorded.conditions: Dengue virus, A549, 48 h, read-out: Dengue 1 virus MY97-10245 in A549 using HCl [Inhibitor/IC50] Qualified AC50
pEC50: −log10 of the molar value.
Reported pEC50 is given for each of the following compounds.

>>> print(df.to_string())
                                   compound  reported_measurement
0  CNS(=O)(=O)c1ccc(CC(=O)Nc2sc3c(c2C#N)CN(Cc2cccc(F)c2)CC3)cc1 [Example 29]          6.00 to 7.00

N#Cc1c(NC(=O)Cc2ccc(S(N)(=O)=O)c(F)c2)sc2c1CN(Cc1cccc(F)c1)CC2 [Example 43] yielded pEC50 of 6.00 to 7.00

N#Cc1c(NC(=O)Cc2ccc(S(N)(=O)=O)cc2)sc2c1CCN(Cc1ccc(F)cc1Cl)C2 [Example 107] yielded pEC50 of 6.00 to 7.00

CC1Cc2sc(NC(=O)Cc3ccc(S(N)(=O)=O)cc3)c(C#N)c2CN1CC1CC(F)(F)C1 (stereo not shown) [Example 56] yielded pEC50 of < 6.00

CC1Cc2sc(NC(=O)Cc3ccc(S(N)(=O)=O)cc3)c(C#N)c2CN1CCc1ccccc1 (stereo not shown) [Example 67] yielded pEC50 of < 6.00

CCOc1cc(CC(=O)Nc2sc3c(c2C#N)CN(CC2CCCCC2)CC3)ccc1S(N)(=O)=O [Example 12] yielded pEC50 of > 7.00

COc1cc(Cl)cc(CC(=O)Nc2sc3c(c2C#N)CN(Cc2cccc(F)c2)CC3)c1 [Example 39] yielded pEC50 of < 6.00

CC1(C)CS(=O)(=O)c2ccc(CC(=O)Nc3sc4c(c3C#N)CN(Cc3cccc(F)c3)CC4)cc21 [Example 42] yielded pEC50 of 6.00 to 7.00

====

Reported EC50 is given for each of the following molecules.
# System: Dengue 3 virus MY05-34640-WT-C6/36
# protocol.description: High-content imaging cell-based flavivirus immunodetection (HCl-CFI) assay, Dengue 3
# recorded.conditions: Dengue virus, A549, 48 h, read-out: Dengue 3 virus MY05-34640-WT-C6/36 in A549 using HCl [Inhibitor/IC50] Qualified AC50
Where a name gives a salt, the structure may show the parent alone.

// known answers, use as guide
>>> print(df.to_string())
                                   molecule                        assay_system  readout  reported_measurement
0  N#Cc1c(NC(=O)Cc2ccc3c(c2)CNC3)sc2c1CN(Cc1cccc(F)c1)CC2 [Example 26]  Dengue 3 virus MY05-34640-WT-C6/36     EC50             > 1000 nM
1  CC1Cc2sc(NC(=O)Cc3ccc(S(N)(=O)=O)cc3)c(C#N)c2CN1CCC1CCCCC1 (stereo not shown) [Example 68]  Dengue 3 virus MY05-34640-WT-C6/36     EC50              < 100 nM
2  COC(=O)c1ccccc1CN1CCc2c(sc(NC(=O)Cc3ccc(S(N)(=O)=O)cc3)c2C#N)C1 [Example 91, hydrochloride]  Dengue 3 virus MY05-34640-WT-C6/36     EC50             > 1000 nM

Cc1cccc(CN2CCc3c(sc(NC(=O)Cc4ccc(S(N)(=O)=O)cc4)c3C#N)C2)c1C [Example 95] yielded EC50 of < 100 nM

CC(O)(c1ccc(CC(=O)Nc2sc3c(c2C#N)CN(CC2CCCCC2)CC3)cc1)C(F)(F)F (stereo not shown) [Example 8] yielded EC50 of 100 to 1000 nM

====

# System: Dengue 4 virus MY01-22713
# protocol.description: High-content imaging cell-based flavivirus immunodetection (HCl-CFI) assay, Dengue 4
# recorded.conditions: Dengue virus, A549, 48 h, read-out: Dengue 4 virus MY01-22713 in A549 using HCl [Inhibitor/IC50] Qualified AC50, A549 cells, 48 h, viral E protein expression
Reported EC50 is given for each of the following compounds.

In [3]: df
Out[3]:
                                   compound               assay_system  reported_measurement
0  Cn1cc(S(N)(=O)=O)cc1CC(=O)Nc1sc2c(c1C#N)CN(CC1CCCCC1)CC2 [Example 88]  Dengue 4 virus MY01-22713              < 100 nM

CS(=O)(=O)Cc1ccc(CC(=O)Nc2sc3c(c2C#N)CN(Cc2cccc(F)c2)CC3)cc1 [Example 32] yielded EC50 of < 100 nM

CC1Cc2sc(NC(=O)Cc3ccc(S(=O)(=O)NCC4CC(F)(F)C4)cc3)c(C#N)c2CN1CC1CC(F)(F)C1 (stereo not shown) [Example 57] yielded EC50 of 100 to 1000 nM

COc1cc(CC(=O)Nc2sc3c(c2C#N)CN(CC2CCCCC2)C(C)(C)C3)ccc1S(N)(=O)=O [Example 82] yielded EC50 of < 100 nM

N#Cc1c(NC(=O)Cc2ccc(S(N)(=O)=O)cc2)sc2c1CCN(Cc1ccc(F)cc1)C2 [Example 101] yielded EC50 of < 100 nM

N#Cc1c(NC(=O)Cc2ccc(S(N)(=O)=O)cc2)sc2c1CN(CC13CC(F)(C1)C3)CC2 [Example 1] yielded EC50 of 100 to 1000 nM

N#Cc1c(NC(=O)Cc2ccc(S(N)(=O)=O)cc2)sc2c1CCN(Cc1ccccc1Cl)C2 [Example 114] yielded EC50 of < 100 nM
